Give measured IC50 for each item. Keep answers brief.
System: P-Akt (S473)
Test: Cell based AlphaLISA assay, inhibition of P-Akt (S473) (mTORC2 substrate phosphorylation) in MDA-MB-468 cells
Details: Homo sapiens, MDA-MB-468, 4 h, AlphaLISA, two to four hours at 37° C., read-out: pIC50 for Inhibition of mTORC1 and mTORC2 Substrate Phosphorylation, p-AKT 1/2/3 -(S473) (converted)

CO/N=C1/C[C@@H]([C@H](C)C[C@@H]2CC[C@H](n3cc(CCCC(=O)NCCOCCOCCOCCC(=O)NCCOCCOCCC(=O)NCCCCn4nc(-c5ccc6oc(N)nc6c5)c5c(N)ncnc54)nn3)[C@H](OC)C2)OC(=O)[C@@H]2CCCCN2C(=O)C(=O)[C@]2(O)O[C@@H](CC[C@H]2C)C[C@H](OC)/C(C)=C/C=C/C=C/[C@@H](C)C[C@@H](C)C(=O)[C@H](OC)[C@H](O)/C(C)=C/[C@H]1C [Example 169]
> 1 µM

For each of the molecules below, state IC50.
1. CO[C@H]1C[C@@H]2CC[C@@H](C)[C@@](O)(O2)C(=O)C(=O)N2CCCC[C@H]2C(=O)O[C@H]([C@H](C)C[C@@H]2CC[C@@H](O)[C@H](OC)C2)C[C@@H](OC)[C@H](C)/C=C(\C)[C@@H](O)[C@@H](OC)C(=NOCc2cn(CCOCCOCCOCCOCCNC(=O)CCCC(=O)NCCCCn3nc(-c4ccc5oc(N)nc5c4)c4c(N)ncnc43)nn2)[C@H](C)C[C@H](C)/C=C/C=C/C=C/1C [Example 104]
2. COc1cccc2cc(-c3nc([C@H]4CC[C@H](C(=O)NCCOCCOCCNC(=O)CCOCCOCCOCCOCCn5cc(CCCCO[C@@H]6CC[C@@H](C[C@@H](C)[C@@H]7CC(=O)[C@H](C)/C=C(\C)[C@@H](O)[C@@H](OC)C(=O)[C@H](C)C[C@H](C)/C=C/C=C/C=C(\C)[C@@H](OC)C[C@@H]8CC[C@@H](C)[C@@](O)(O8)C(=O)C(=O)N8CCCC[C@H]8C(=O)O7)C[C@H]6OC)nn5)CC4)n4ncnc(N)c34)[nH]c12 [Example 187]

0.0316 to 1 µM
0.00316 to 0.0316 µM

The origin of these recorded values is patent US20230093861A1.
